Test system: Bacillus anthracis Ames strain
Test: microbe, parasite or virus in culture
Type: cell-based
Where a name gives a salt, the structure may show the parent alone.
outcome-measure: MIC

Endpoint output: MIC of Cc1c(-c2ccc(N)c(F)c2)ccn2c(=O)c(C(=O)O)cc(C3CC3)c12 [Example 2 K salt] . Value?
4 ng/mL

Returns the measured MIC for the input compound. Input: Cc1c(C2=CCNCC2)ccn2c(=O)c(C(=O)O)cc(C3CC3)c12 [Example 42]
250 ng/mL

Consider the compound shown here: Cc1c(-c2cccc(N)c2)ccn2c(=O)c(C(=O)O)cc(C3CC3)c12 [Example 3 K salt] What is its recorded MIC?
8 ng/mL

Recorded MIC of Cc1c(-c2ccnc(F)c2)ccn2c(=O)c(C(=O)O)cc(C3CC3)c12 [Example 20 K salt] , please.
31 ng/mL

Look up MIC for this compound: Cc1c(-c2ccc(CO)cc2)ccn2c(=O)c(C(=O)O)cc(C3CC3)c12 [Example 48 K salt]
8 ng/mL

Query (compound): Cc1c(-c2ccc(Cl)cc2)ccn2c(=O)c(C(=O)O)cc(C3CC3)c12 [Example 45 K salt] ; field requested: MIC
16 ng/mL

Given Cc1c(-c2ccc3[nH]ncc3c2)ccn2c(=O)c(C(=O)O)cc(C3CC3)c12 [Example 23 K salt] , state its recorded MIC.
4 ng/mL

For Cc1c(-c2cc(N)cc(F)c2)ccn2c(=O)c(C(=O)O)cc(C3CC3)c12 [Example 9 K salt] , what is its reported MIC?
8 ng/mL

Look up MIC: Cc1c(-c2ccncc2)ccn2c(=O)c(C(=O)O)cc(C3CC3)c12 [Example 16 K salt]
16 ng/mL

Could you tell me which MIC is on file for Cc1c(-c2ccc(F)c(N)c2)ccn2c(=O)c(C(=O)O)cc(C3CC3)c12 [Example 8 K salt] ?
8 ng/mL

Any idea what its MIC is? The compound is Cc1c(-c2ccc(N)c(F)c2)c(F)cn2c(=O)c(C(=O)O)cc(C3CC3)c12 [Example 1 K salt]
4 ng/mL

Please report the recorded MIC for Cc1c(-c2ccc(N)nc2)ccn2c(=O)c(C(=O)O)cc(C3CC3)c12 [Example 21 K salt] .
16 ng/mL

Requested field: MIC. Item: Cc1c(-c2cc(F)c(N)cc2F)ccn2c(=O)c(C(=O)O)cc(C3CC3)c12 [Example 28 K salt]
4 ng/mL

// lookup MIC for Cc1c(-c2ccc(O)cc2)ccn2c(=O)c(C(=O)O)cc(C3CC3)c12 [Example 46 K salt]
4 ng/mL

Endpoint output: MIC of Cc1c(-c2ccc(CN)cc2)ccn2c(=O)c(C(=O)O)cc(C3CC3)c12 [Example 31 K salt] . Value?
16 to 31 ng/mL
